Measured values drawn from PubChem BioAssay AID588780 for this set.

Tested on: H9c2 cardiomyocytes, 2-deoxyglucose stress, ATP luminescence, 2 h
Assay: H9c2 cell survival under 2-deoxyglucose stress – uHTS hits, dose response (AID 588780)
The source made the active and inactive calls.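 How the source made its calls: active means compounds whose fitted half-maximal concentration in the cell-protection dose series is at or below a set limit; inactive means the rest.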
Classes used: class 1 = active, class 0 = inactive

COMPOUND: COc1nnc(-c2ccc(C)c(S(=O)(=O)NCCO)c2)c2ccccc12
QUALITATIVE_LABEL: class 0
--
COMPOUND: Cc1nn(-c2ccccc2)nc1C(=O)Nc1cccc(C(=O)NC2CC2)c1
QUALITATIVE_LABEL: class 0
--
COMPOUND: O=C(NN=Cc1cccc([N+](=O)[O-])c1)c1cc(-c2cccnc2)nc2ccccc12
QUALITATIVE_LABEL: class 0
--
COMPOUND: CC(C(=O)NC1CCCC1)N(C(=O)Cn1nnc(-c2ccc(F)cc2)n1)c1ccccc1F (stereo not drawn)
QUALITATIVE_LABEL: class 0
--
COMPOUND: O=C(Nc1cccc(NC(=O)c2ccc([N+](=O)[O-])o2)c1)c1ccco1
QUALITATIVE_LABEL: class 0
--
COMPOUND: CCOC(=O)C1=C(C)N=c2s/c(=C\c3ccncc3)c(=O)n2C1c1ccc2c(c1)OCO2 (stereo not drawn)
QUALITATIVE_LABEL: class 0
--
COMPOUND: CCOc1ccc2[nH]c(=O)c(CN(CCO)C3(c4nnnn4C4CCCCC4)CCCCC3)cc2c1
QUALITATIVE_LABEL: class 0
--
COMPOUND: Cc1cccc(NC(=O)c2nc[nH]c2C(=O)NCC(=O)OCc2ccccc2)c1
QUALITATIVE_LABEL: class 0
--
COMPOUND: C[C@H](NC(=O)c1nc[nH]c1C(=O)NCC(=O)OCc1ccccc1)c1ccccc1
QUALITATIVE_LABEL: class 1
--
COMPOUND: O=[N+]([O-])c1ccc(Nc2nc(N/N=C/c3cccc(F)c3)nc(N3CCCC3)n2)cc1
QUALITATIVE_LABEL: class 0
--
COMPOUND: Cn1c2c(c(=O)n(C)c1=O)C(c1cccc([N+](=O)[O-])c1)Nc1ccccc1O2 (stereo not drawn)
QUALITATIVE_LABEL: class 0
--
COMPOUND: CCC1(C)Cc2c(sc3nc(NN)n(C)c(=O)c23)CO1 (stereo not drawn)
QUALITATIVE_LABEL: class 0
--
COMPOUND: CC(Oc1ccccc1)C(=O)Nc1nc(-c2ccccn2)cs1 (stereo not drawn)
QUALITATIVE_LABEL: class 0
--
COMPOUND: Cc1ccc(CN(C(=O)CNC(=O)c2cccs2)C(C(=O)NCC2CCCO2)c2ccccc2)cc1 (stereo not drawn)
QUALITATIVE_LABEL: class 1
--
COMPOUND: Cc1ccc(S(=O)(=O)N2CCOCC2)cc1C(=O)Nc1nc(-c2ccccn2)cs1
QUALITATIVE_LABEL: class 1
--
COMPOUND: CC(=O)c1ccccc1OCCCN1CCCCC1
QUALITATIVE_LABEL: class 0
--
COMPOUND: CCc1cc(C(=O)Nc2nc(-c3ccccn3)cs2)sc1C
QUALITATIVE_LABEL: class 0
--
COMPOUND: O=C1C2C3C=CC(CC3)C2C(=O)N1c1cccc(Br)c1 (stereo not drawn)
QUALITATIVE_LABEL: class 0

----------
Tested on: H9c2 cardiomyocytes, 2-deoxyglucose stress, ATP luminescence, 2 h
Assay: H9c2 cell survival under 2-deoxyglucose stress – uHTS hits, dose response (AID 588780)
The source made the active and inactive calls.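 How the source made its calls: active means compounds whose fitted half-maximal concentration in the cell-protection dose series is at or below a set limit; inactive means the rest.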
Classes used: true = active, false = inactive

COMPOUND: N#Cc1ccc(OCC(=O)Nc2nc(-c3ccccn3)cs2)cc1
QUALITATIVE_LABEL: false
//
COMPOUND: COc1ccc(C2/C=C\CN(S(=O)(=O)c3cccc4cccnc34)CC(=O)N2Cc2ccc(F)cc2)cc1 (centres undefined)
QUALITATIVE_LABEL: false
//
COMPOUND: Brc1ccc(-c2nn3c(-c4ccccn4)nnc3s2)o1
QUALITATIVE_LABEL: false
//
COMPOUND: Oc1c(Br)cc(Br)cc1C=NCc1ccc(F)cc1
QUALITATIVE_LABEL: false
//
COMPOUND: CC(C)(C)OC(=O)CNC(=O)c1[nH]cnc1C(=O)NC(c1ccccc1)c1ccccc1
QUALITATIVE_LABEL: true
//
COMPOUND: COc1ccccc1NS(=O)(=O)c1cc(NC(=O)CCc2nc3ccccc3c(=O)[nH]2)ccc1C
QUALITATIVE_LABEL: true
//
COMPOUND: O=C(COC(=O)CCc1nc2ccccc2c(=O)[nH]1)Nc1ccc2c(c1)OCO2
QUALITATIVE_LABEL: false
//
COMPOUND: O=c1[nH]c2cc(O)ccc2c2ccccc12
QUALITATIVE_LABEL: false
//
COMPOUND: COc1ccc(C(CC(=O)N2CCN(c3ccccc3)CC2)c2c(OC)cc(OC)c3ccc(=O)oc23)cc1 (centres undefined)
QUALITATIVE_LABEL: true
//
COMPOUND: O=C(N/N=C/c1cccc2cccnc12)[C@H]1C[C@@H]1c1ccccc1
QUALITATIVE_LABEL: true
//
COMPOUND: O=C(Cc1n[nH]c(=O)c2ccccc12)NCc1ccccn1
QUALITATIVE_LABEL: false
//
COMPOUND: Cc1ccc(C(=O)Oc2ccc(Cl)c3cccnc23)cc1[N+](=O)[O-]
QUALITATIVE_LABEL: false
//
COMPOUND: Cc1ccccc1N=Cc1cc2c(cc1[N+](=O)[O-])OCO2
QUALITATIVE_LABEL: false
//
COMPOUND: O=c1cc(CN2CCN(S(=O)(=O)c3cccc(Cl)c3)CC2)c2ccc(O)cc2o1
QUALITATIVE_LABEL: false
//
COMPOUND: COc1ccc(/C=N/NC(=O)c2cccnc2)cc1CN1CCc2ccccc2C1
QUALITATIVE_LABEL: false
//
COMPOUND: O=S(=O)(c1cccc(F)c1)N1CCN(c2nc(-c3cccnc3)nc3ccccc23)CC1
QUALITATIVE_LABEL: true
//
COMPOUND: CCC(C)Nc1ncnc2c1cnn2Cc1ccc(Cl)cc1 (centres undefined)
QUALITATIVE_LABEL: false
//
COMPOUND: Cc1sc2nc(SCC(=O)N3CCOCC3)[nH]c(=O)c2c1C
QUALITATIVE_LABEL: false
//
COMPOUND: O=C(COC(=O)Cc1n[nH]c(=O)c2ccccc12)NNC(=O)c1ccc(Cl)cc1
QUALITATIVE_LABEL: false
//
COMPOUND: CCOC(=O)c1ccccc1NC(=O)c1ccc2c(=O)n3c(nc2c1)CCCCC3
QUALITATIVE_LABEL: false
//
COMPOUND: CN1CCc2nc3ccccc3c(C(=O)OCC(=O)N(CCC#N)c3ccccc3)c2C1
QUALITATIVE_LABEL: false
//
COMPOUND: Cc1cccc(NC(=O)c2nc[nH]c2C(=O)NCCCCCCNC(=O)c2[nH]cnc2C(=O)Nc2cccc(C)c2)c1
QUALITATIVE_LABEL: false
//
COMPOUND: COc1ccc(Br)cc1/C=N/NC(=O)CNC(=O)/C=C/c1ccccc1
QUALITATIVE_LABEL: false
//
COMPOUND: COc1cc(OC)cc(-c2cc3nc(C)c(CCC(=O)Nc4nc(C)cs4)c(C)n3n2)c1
QUALITATIVE_LABEL: false
//
COMPOUND: COc1cc2oc3cc(C#Cc4ccc(N)cc4)ccc3c(=O)c2cc1OC
QUALITATIVE_LABEL: false
//
COMPOUND: COC(=O)c1[nH]c2c(c1C)C(=O)CC(c1cc(OC)ccc1OC)C2 (centres undefined)
QUALITATIVE_LABEL: false
//
COMPOUND: CC(=O)c1ccc(N2CCN(C(=O)c3cc(-c4cccnc4)nc4ccc(Br)cc34)CC2)cc1
QUALITATIVE_LABEL: true
//
COMPOUND: COc1ccc(-c2cc(=O)oc3c(C)c(O)c(CN(C)C)cc23)cc1
QUALITATIVE_LABEL: false
//
COMPOUND: CCOc1ccc2[nH]c(=O)c(CN(Cc3ccco3)C(CC)c3nnnn3Cc3ccccc3)cc2c1 (centres undefined)
QUALITATIVE_LABEL: false
//
COMPOUND: O=c1[nH]c2cccc(Cl)c2c2ccccc12
QUALITATIVE_LABEL: false
//
COMPOUND: O=C1Nc2ccccc2C(=O)C1(Cl)Cc1ccccc1 (centres undefined)
QUALITATIVE_LABEL: false
//
COMPOUND: CCOC(=O)C1=C(C)NC(C)=C(C(=O)OCC)C1C(=O)OCC(=O)NC(C)C
QUALITATIVE_LABEL: true
//
COMPOUND: CCCCc1cc(=O)oc2cc(O)ccc12
QUALITATIVE_LABEL: false
//
COMPOUND: Cc1csc(SCc2nc3sc4c(c3c(=O)[nH]2)CCC4)n1
QUALITATIVE_LABEL: false
